- Target or test system: Cad1 (UniProt P24813)
- Sequence: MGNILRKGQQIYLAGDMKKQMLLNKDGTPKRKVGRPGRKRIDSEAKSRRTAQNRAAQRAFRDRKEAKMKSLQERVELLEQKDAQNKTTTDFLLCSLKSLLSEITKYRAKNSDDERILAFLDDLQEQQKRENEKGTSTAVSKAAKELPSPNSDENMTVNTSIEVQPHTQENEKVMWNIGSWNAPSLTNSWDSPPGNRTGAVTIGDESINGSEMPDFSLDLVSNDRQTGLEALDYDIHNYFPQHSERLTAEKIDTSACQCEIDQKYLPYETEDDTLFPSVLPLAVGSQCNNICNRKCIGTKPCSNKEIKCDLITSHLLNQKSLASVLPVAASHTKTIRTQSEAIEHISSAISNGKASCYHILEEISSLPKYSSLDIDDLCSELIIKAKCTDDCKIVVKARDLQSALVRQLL
- Protocol notes: PBM E-score (8-mer binding enrichment) (E-score (-0.5 to 0.5)); higher = stronger / more preferred TF binding
- Condition label: protein concentration: 100 nM; construct: GST-full length
The full ranking holds about 33,000 sequences; the median of “E-score (-0.5 to 0.5)” is about -0.0014, and the highest 2% start at about 0.25. What follows is part of a selection rich in the highest values, with near analogues and random picks from the rest.
I would appreciate it if you labelled entries Satisfied when PBM E-score is 0.04 or higher, otherwise Not satisfied.

Please review the following examples before continuing.
TGTACCAA	Not satisfied
ATGCCTTA	Not satisfied
GTGCGCTA	Satisfied
GGCATAAC	Satisfied
GCGCGCTA	Satisfied
TAACGATA	Satisfied
CAGAATGG	Not satisfied
CCTGCTAA	Not satisfied
ACACGAAG	Satisfied
ATACCATG	Not satisfied

Is it the case that CCGATGAG has PBM E-score reaching or exceeding 0.04?
Satisfied

Is it the case that CAACGATA has PBM E-score reaching or exceeding 0.04?
Satisfied

Is it the case that CGTACCAA has PBM E-score reaching or exceeding 0.04?
Satisfied

Is it the case that GATACACA has PBM E-score reaching or exceeding 0.04?
Satisfied

Is it the case that AGTAATAG has PBM E-score reaching or exceeding 0.04?
Satisfied

Is it the case that CCGCGCTC has PBM E-score reaching or exceeding 0.04?
Satisfied

Is it the case that AAGTGCTA has PBM E-score reaching or exceeding 0.04?
Not satisfied

Is it the case that CTGCGCTA has PBM E-score reaching or exceeding 0.04?
Not satisfied

Is it the case that ATACCATA has PBM E-score reaching or exceeding 0.04?
Satisfied

Is it the case that ATTACCAA has PBM E-score reaching or exceeding 0.04?
Satisfied

Is it the case that ACTAATAT has PBM E-score reaching or exceeding 0.04?
Satisfied

Is it the case that CGTACCAG has PBM E-score reaching or exceeding 0.04?
Not satisfied
